# Experimental Details: NCI Yeast Anticancer Drug Screen. Data for the bub3 strain (AID 167)
# Cond: S. cerevisiae bub3 mutant strain, at 50.0 µM (retest, dose inferred, filed as 5.0)
This is part of a sample that, as a whole, favours compounds with a hit. Of some 79,000 tested, about 15% had one in any assay. Calls of active or inactive are those of the source. Cut-off read from the data, not from the text of the source: active = growth inhibition above about 70%; inactive = the rest.
Select the correct class. Options are active, inactive and nothing else.

*Q* Record request — test call for CCCCCCC(Sc1n[nH]c(=O)[nH]c1=O)C(=O)OCC (configuration not stated)
*A* active

*Q* Now the molecule `Cc1cnc2c(c1C)C(=O)c1ccccc1C2=O`
*A* active

*Q* Now the molecule CS(=O)(=O)N1C(=O)C2C3CCC(O3)C2C1=O (configuration not stated)
*A* inactive

*Q* Now the molecule `O=C1/C(=C\c2ccccc2)CCC/C1=C\O`
*A* inactive

*Q* Now the molecule `O=c1oc2c(-c3ccccc3)cccc2c(O)c1-c1ccccc1`
*A* active

*Q* Now the molecule `Cc1ccc2c(c1C)-c1c(ccc(C)c1C)C(=O)C2=O`
*A* active

*Q* Now the molecule `CC(C)c1cc(O)c(C(C)(C)C)cc1Cl`
*A* inactive
